Ref: paper PMC11181328

Emax listing for selected compounds.
Biological target: MOR (Mus musculus)
Experiment: [35S]-GTPγS functional assay, MOR
Assay type: biochemical
Design: expressed in transfected cells; membrane homogenate
Conditions: read-out: [35S]-GTPγS functional activity MOR Emax (%)
The response must be a number in % with no trailing unit.

Solved cases below.
COMPOUND	TEST_SYSTEM	VALUE_UNITS	Emax
CN(C(=O)CCc1ccoc1)[C@H]1CC[C@@]2(O)[C@H]3Cc4ccc(O)c5c4[C@@]2(CCN3CC2CC2)[C@H]1O5 [Compound 5]	MOR (Mus musculus)	%	17.9
O=C(/C=C/c1ccco1)N[C@H]1CC[C@@]2(O)[C@H]3Cc4cccc5c4[C@@]2(CCN3CC2CC2)[C@H]1O5 [Compound 18]	MOR (Mus musculus)	%	16
CN(C(=O)/C=C/c1ccco1)[C@H]1CC[C@@]2(O)[C@H]3Cc4ccc(O)c5c4[C@@]2(CCN3CC2CC2)[C@H]1O5.Cl [Compound 21]	MOR (Mus musculus)	%	19.7

# input Endpoint output: Emax of O=C(CCc1ccco1)N[C@H]1CC[C@@]2(O)[C@H]3Cc4cccc5c4[C@@]2(CCN3CC2CC2)[C@H]1O5 [Compound 10] . Value?
# output 10.2

# input Endpoint output: Emax of O=C(CCc1ccoc1)N[C@@H]1CC[C@@]2(O)[C@H]3Cc4cccc5c4[C@@]2(CCN3CC2CC2)[C@H]1O5 [Compound 4] . Value?
# output 14.2

# input Endpoint output: Emax of CN(C(=O)/C=C/c1ccco1)[C@@H]1CC[C@@]2(O)[C@H]3Cc4cccc5c4[C@@]2(CCN3CC2CC2)[C@H]1O5 [Compound 19] . Value?
# output 11

---

Molecular target: DOR (Homo sapiens, UniProt P41143)
Construct: expressed in transfected cells; membrane homogenate
Experiment: [35S]-GTPγS functional assay, DOR
Type: biochemical
Settings: hDOR-CHO membranes
pEC50 listing for selected compounds.
// pEC50 is dimensionless: -log10 of concentration (M)

Solved cases below.
COMPOUND	MEASURED_RESULT
O=C(CCc1ccoc1)N[C@@H]1CC[C@@]2(O)[C@H]3Cc4cccc5c4[C@@]2(CCN3CC2CC2)[C@H]1O5 [Compound 4]	5.77
Cl.O=C(CCc1ccco1)N[C@@H]1CC[C@@]2(O)[C@H]3Cc4ccc(O)c5c4[C@@]2(CCN3CC2CC2)[C@H]1O5 [Compound 16]	7.78
CN(C(=O)CCc1ccoc1)[C@@H]1CC[C@@]2(O)[C@H]3Cc4cccc5c4[C@@]2(CCN3CC2CC2)[C@H]1O5 [Compound 3]	5.24
O=C(/C=C/c1ccco1)N[C@@H]1CC[C@@]2(O)[C@H]3Cc4cccc5c4[C@@]2(CCN3CC2CC2)[C@H]1O5 [Compound 20]	6.07

# input Record lookup: for DOR (Homo sapiens, UniProt P41143), what pEC50 belongs to CN(C(=O)/C=C/c1ccco1)[C@H]1CC[C@@]2(O)[C@H]3Cc4cccc5c4[C@@]2(CCN3CC2CC2)[C@H]1O5 [Compound 17] ?
# output 6.36

# input Record lookup: for DOR (Homo sapiens, UniProt P41143), what pEC50 belongs to O=C(/C=C/c1ccco1)N[C@H]1CC[C@@]2(O)[C@H]3Cc4ccc(O)c5c4[C@@]2(CCN3CC2CC2)[C@H]1O5 [Compound 22] ?
# output 7.68

---

Biological target: KOR (Mus musculus)
Construct: expressed in transfected cells; membrane homogenate
Experiment: Competitive radioligand binding assay, KOR
Conditions: ratio of Ki values
VALUE_TYPE: selectivity ratio δ/κ

Solved cases below.
CN(C(=O)/C=C/c1ccco1)[C@@H]1CC[C@@]2(O)[C@H]3Cc4cccc5c4[C@@]2(CCN3CC2CC2)[C@H]1O5 551
CN(C(=O)/C=C/c1ccco1)[C@H]1CC[C@@]2(O)[C@H]3Cc4cccc5c4[C@@]2(CCN3CC2CC2)[C@H]1O5 110
CN(C(=O)CCc1ccco1)[C@@H]1CC[C@@]2(O)[C@H]3Cc4cccc5c4[C@@]2(CCN3CC2CC2)[C@H]1O5 11
CN(C(=O)CCc1ccoc1)[C@@H]1CC[C@@]2(O)[C@H]3Cc4cccc5c4[C@@]2(CCN3CC2CC2)[C@H]1O5 26

# input Endpoint output: selectivity ratio δ/κ of O=C(/C=C/c1ccco1)N[C@H]1CC[C@@]2(O)[C@H]3Cc4cccc5c4[C@@]2(CCN3CC2CC2)[C@H]1O5 . Value?
# output 2

# input Endpoint output: selectivity ratio δ/κ of CN(C(=O)/C=C/c1ccco1)[C@H]1CC[C@@]2(O)[C@H]3Cc4ccc(O)c5c4[C@@]2(CCN3CC2CC2)[C@H]1O5.Cl . Value?
# output 7

---

Biological target: hERG (Kv11.1) (Homo sapiens)
Assay: Automated patch-clamp hERG inhibition assay in CHO-hERG cells
VALUE_TYPE: pIC50
// pIC50 is dimensionless: -log10 of concentration (M)

# input Endpoint output: pIC50 of CN(C(=O)/C=C/c1ccco1)[C@H]1CC[C@@]2(O)[C@H]3Cc4ccc(O)c5c4[C@@]2(CCN3CC2CC2)[C@H]1O5.Cl [Compound 21] . Value?
# output 5.60

---

Experiment: in vitro
Details: human, s9
VALUE_TYPE: half-life at 1 h, 1 µM (min)
The response must be a number in min with no trailing unit.

# input Endpoint output: half-life at 1 h, 1 µM of O=C(O)Cc1ccccc1Nc1c(Cl)cccc1Cl [diclofenac, reference compound] . Value?
# output 18.5

---

Test: Drug distribution study (brain and plasma, LC-MS/MS)
Format: in vivo, mouse
Conditions: Swiss Webster, mouse, brain and plasma, sc; 0.1 mg/kg s.c., 10 min; read-out: B/P (brain-to-plasma concentration ratio)
VALUE_TYPE: Kp at 10 min
Lab note: record just the number, no unit beside it.

# input Endpoint output: Kp at 10 min of CN(C(=O)/C=C/c1ccco1)[C@H]1CC[C@@]2(O)[C@H]3Cc4ccc(O)c5c4[C@@]2(CCN3CC2CC2)[C@H]1O5.Cl . Value?
# output 0.186

---

Biological target: UniProt P42866
Test: Competitive radioligand binding assay, MOR
Set-up: expressed in transfected cells; membrane homogenate
log10 Ki listing for selected molecules.
Please be aware that the numbers have been log10-transformed from Ki in µM.

Solved cases below.
CN(C(=O)CCc1ccoc1)[C@@H]1CC[C@@]2(O)[C@H]3Cc4cccc5c4[C@@]2(CCN3CC2CC2)[C@H]1O5 -1.36
CN(C(=O)CCc1ccco1)[C@H]1CC[C@@]2(O)[C@H]3Cc4cccc5c4[C@@]2(CCN3CC2CC2)[C@H]1O5 -1.85
O=C(/C=C/c1ccco1)N[C@H]1CC[C@@]2(O)[C@H]3Cc4cccc5c4[C@@]2(CCN3CC2CC2)[C@H]1O5 -0.97
CN(C(=O)CCc1ccoc1)[C@H]1CC[C@@]2(O)[C@H]3Cc4cccc5c4[C@@]2(CCN3CC2CC2)[C@H]1O5 -2.11
CN(C(=O)CCc1ccoc1)[C@@H]1CC[C@@]2(O)[C@H]3Cc4ccc(O)c5c4[C@@]2(CCN3CC2CC2)[C@H]1O5 -3.28

# input Endpoint output: log10 Ki of CN(C(=O)CCc1ccoc1)[C@H]1CC[C@@]2(O)[C@H]3Cc4ccc(O)c5c4[C@@]2(CCN3CC2CC2)[C@H]1O5 . Value?
# output -3.74

# input Endpoint output: log10 Ki of CN(C(=O)CCc1ccco1)[C@H]1CC[C@@]2(O)[C@H]3Cc4ccc(O)c5c4[C@@]2(CCN3CC2CC2)[C@H]1O5 . Value?
# output -3.82

# input Endpoint output: log10 Ki of CN(C(=O)/C=C/c1ccco1)[C@H]1CC[C@@]2(O)[C@H]3Cc4ccc(O)c5c4[C@@]2(CCN3CC2CC2)[C@H]1O5.Cl . Value?
# output -3.70

# input Endpoint output: log10 Ki of O=C(/C=C/c1ccco1)N[C@@H]1CC[C@@]2(O)[C@H]3Cc4cccc5c4[C@@]2(CCN3CC2CC2)[C@H]1O5 . Value?
# output -1.37

# input Endpoint output: log10 Ki of O=C(CCc1ccco1)N[C@H]1CC[C@@]2(O)[C@H]3Cc4cccc5c4[C@@]2(CCN3CC2CC2)[C@H]1O5 . Value?
# output -1.27

# input Endpoint output: log10 Ki of O=C(CCc1ccoc1)N[C@@H]1CC[C@@]2(O)[C@H]3Cc4cccc5c4[C@@]2(CCN3CC2CC2)[C@H]1O5 . Value?
# output -1.76

---

Molecular target: KOR (Mus musculus)
Construct: expressed in transfected cells; membrane homogenate
Test: Competitive radioligand binding assay, KOR
Criterion: Ki strictly less than 0.5 nM. Met: YES. Not met: NO.

Solved cases (5 shown):
CN(C(=O)CCc1ccoc1)[C@H]1CC[C@@]2(O)[C@H]3Cc4cccc5c4[C@@]2(CCN3CC2CC2)[C@H]1O5 YES
CN(C(=O)/C=C/c1ccco1)[C@H]1CC[C@@]2(O)[C@H]3Cc4ccc(O)c5c4[C@@]2(CCN3CC2CC2)[C@H]1O5.Cl YES
CN(C(=O)CCc1ccoc1)[C@@H]1CC[C@@]2(O)[C@H]3Cc4ccc(O)c5c4[C@@]2(CCN3CC2CC2)[C@H]1O5 YES
CN(C(=O)/C=C/c1ccco1)[C@@H]1CC[C@@]2(O)[C@H]3Cc4ccc(O)c5c4[C@@]2(CCN3CC2CC2)[C@H]1O5.Cl YES
CN(C(=O)/C=C/c1ccco1)[C@H]1CC[C@@]2(O)[C@H]3Cc4cccc5c4[C@@]2(CCN3CC2CC2)[C@H]1O5 NO

# input Regarding O=C(CCc1ccoc1)N[C@@H]1CC[C@@]2(O)[C@H]3Cc4cccc5c4[C@@]2(CCN3CC2CC2)[C@H]1O5 , kindly confirm whether its Ki is beneath 0.5 nM.
# output NO

# input Regarding O=C(/C=C/c1ccco1)N[C@@H]1CC[C@@]2(O)[C@H]3Cc4cccc5c4[C@@]2(CCN3CC2CC2)[C@H]1O5 , kindly confirm whether its Ki is beneath 0.5 nM.
# output NO
